Origin of values: ChEMBL document CHEMBL1800007

# Measurement Protocol: Therapeutic index, CC50 for human CEM-SS cells to EC50 for HIV1 RF
# Format: cell-based
Metric: selectivity ratio

Reported selectivity ratio for Cc1cc(O)c(=O)c(O)c2c1C[C@@H](C(C)(O)CN1CCCCC1)CC2 (mixture of isomers) was 4.9

---

Exercise: state measured pIC50 for each of the compounds provided.
# System Name: Human immunodeficiency virus type 1 reverse transcriptase (Human immunodeficiency virus 1, UniProt Q72547)
Reminder that pIC50 is minus the log10 of a molar concentration.

Reported pIC50 for Cc1cc(O)c(=O)c(O)c2c1C[C@@H](C(C)(O)CN1CCCCC1)CC2 (mixture of isomers) was 6.09

Reported pIC50 for Cc1cc(O)c(=O)c(O)c2c1C[C@@H](C(C)(O)CSc1ccccc1)CC2 (mixture of isomers) was 6.03

Reported pIC50 for Cc1cc(O)c(=O)c(O)c2c1C[C@@H](C(C)O)CC2 (mixture of isomers) was 6.17

Reported pIC50 for CC(C)c1ccc(O)c(=O)c(O)c1 [BETA-THUJAPLICINOL] was 6.68

Reported pIC50 for Cc1cc(O)c(=O)c(O)c2c1C[C@@H](C(C)(O)CS(=O)(=O)c1ccccc1)CC2 (mixture of isomers) was 6.29

Reported pIC50 for Cc1cc(O)c(=O)c(O)c2c1C[C@@H](C(C)(O)CNCc1ccccc1F)CC2 (mixture of isomers) was 5.92

Reported pIC50 for Cc1cc(O)c(=O)c(O)c2c1C[C@@H](C(C)(O)CNc1ccccc1)CC2 (mixture of isomers) was 5.92

Reported pIC50 for CC(=O)Oc1cc(C)c2c(c(OC(C)=O)c1=O)CC[C@H](C(C)(O)CO)C2 (mixture of isomers) was 5.72

Reported pIC50 for Cc1cc(O)c(=O)c(O)c2c1C[C@@H](C(C)(O)C[S+]([O-])c1ccccc1)CC2 (mixture of isomers) was 5.89

Reported pIC50 for C=C(C)[C@H]1CCc2c(c(C)cc(O)c(=O)c2O)C1 was 6.22

Reported pIC50 for CCS(=O)(=O)CC(C)(O)[C@H]1CCc2c(c(C)cc(O)c(=O)c2O)C1 (mixture of isomers) was 6.62

---

# System: Human immunodeficiency virus 1
# Reported Conditions: at 20 µM
# Description: Inhibition of DNA dependent DNA polymerase activity of his6-tagged HIV1 HXB2 reverse transcriptase p66 E478Q/p51 mutant expressed in Escherichia coli at 20 uM using fluorescently tagged duplex DNA substrate by PAGE and fluorescent imaging method
Activity calls are given as the source filed them. The calls are words filed in the database; no cut-off is given here.
The reply should name one outcome from active, inactive

Each molecule tested received a call. Report the one for Cc1cc(O)c(=O)c(O)c2c1C[C@@H](C(C)(O)CS(=O)(=O)c1ccccc1)CC2 (mixture of isomers) . inactive

Each molecule tested received a call. Report the one for CCSCC(C)(O)[C@H]1CCc2c(c(C)cc(O)c(=O)c2O)C1 (mixture of isomers) . inactive

Each molecule tested received a call. Report the one for Cc1cc(O)c(=O)c(O)c2c1C[C@@H](C(C)O)CC2 (mixture of isomers) . inactive

Each molecule tested received a call. Report the one for C=C(C)[C@H]1CCc2c(c(C)cc(O)c(=O)c2O)C1 . inactive

Each molecule tested received a call. Report the one for Cc1cc(O)c(=O)c(O)c2c1C[C@@H](C(C)(O)Cn1ccnc1)CC2 (mixture of isomers) . inactive

Each molecule tested received a call. Report the one for CC(=O)Oc1cc(C)c2c(c(OC(C)=O)c1=O)CC[C@H](C(C)(O)CO)C2 (mixture of isomers) . inactive

Each molecule tested received a call. Report the one for Cc1cc(O)c(=O)c(O)c2c1C[C@@H](C(C)NCc1ccccc1)CC2 (mixture of isomers) . inactive

Each molecule tested received a call. Report the one for CCN(CC)CC(C)(O)[C@H]1CCc2c(c(C)cc(O)c(=O)c2O)C1 (mixture of isomers) . inactive

Each molecule tested received a call. Report the one for Cc1cc(O)c(=O)c(O)c2c1C[C@@H](C(C)(O)CSCc1ccccc1)CC2 (mixture of isomers) . inactive

Each molecule tested received a call. Report the one for Cc1cc(O)c(=O)c(O)c2c1C[C@@H](C(C)(O)CNCc1ccccc1F)CC2 (mixture of isomers) . inactive

Each molecule tested received a call. Report the one for Cc1cc(O)c(=O)c(O)c2c1C[C@@H](C(C)(O)C[S+]([O-])c1ccccc1)CC2 (mixture of isomers) . active

Each molecule tested received a call. Report the one for Cc1cc(O)c(=O)c(O)c2c1C[C@@H](C(C)(O)CN1CCCCC1)CC2 (mixture of isomers) . inactive

---

# Tested on: Human immunodeficiency virus 1
# Reported Conditions: at 20 µM
# Description: Inhibition of DNA dependent DNA polymerase activity of his6-tagged HIV1 HXB2 reverse transcriptase p66 D549A/p51 mutant expressed in Escherichia coli at 20 uM using fluorescently tagged duplex DNA substrate by PAGE and fluorescent imaging method
Calls of active or inactive are those of the source. The calls are words filed in the database; no cut-off is given here.
The reply should name one outcome from Y = active, N = inactive

Each compound tested received a call. Report the one for Cc1cc(O)c(=O)c(O)c2c1C[C@@H](C(C)(O)CSCc1ccccc1)CC2 (mixture of isomers) . N

Each compound tested received a call. Report the one for Cc1cc(O)c(=O)c(O)c2c1C[C@@H](C(C)(O)C[S+]([O-])c1ccccc1)CC2 (mixture of isomers) . Y

Each compound tested received a call. Report the one for Cc1cc(O)c(=O)c(O)c2c1C[C@@H](C(C)(O)CS(=O)(=O)c1ccccc1)CC2 (mixture of isomers) . N

Each compound tested received a call. Report the one for CCN(CC)CC(C)(O)[C@H]1CCc2c(c(C)cc(O)c(=O)c2O)C1 (mixture of isomers) . N

---

# Measurement Protocol: Cytotoxicity against human CEM-SS cells
# Type: cell-based
# Reported Conditions: CEM-SS cells
Metric: CC50 (µM)
The figure you give is taken to be in µM; do not add the unit.

Reported CC50 for CC(C)c1ccc(O)c(=O)c(O)c1 was 2.3

---

Exercise: state measured IC50 for each of the compounds provided.
# System Name: Human immunodeficiency virus type 1 reverse transcriptase (Human immunodeficiency virus 1, UniProt Q72547)
The figure you give is taken to be in nM; do not add the unit.

Reported IC50 for CCSCC(C)(O)[C@H]1CCc2c(c(C)cc(O)c(=O)c2O)C1 (mixture of isomers) was 380

Reported IC50 for Cc1cc(O)c(=O)c(O)c2c1C[C@@H](C(C)(O)CSCc1ccccc1)CC2 (mixture of isomers) was 1300

Reported IC50 for CCN(CC)CC(C)(O)[C@H]1CCc2c(c(C)cc(O)c(=O)c2O)C1 (mixture of isomers) was 500

Reported IC50 for Cc1cc(O)c(=O)c(O)c2c1C[C@@H](C(C)NCc1ccccc1)CC2 (mixture of isomers) was 960

---

# System: Human immunodeficiency virus 1
# Reported Conditions: at 20 µM
Activity calls are given as the source filed them. The calls are words filed in the database; no cut-off is given here.
The reply should name one outcome from active, inactive

Each compound tested received a call. Report the one for CC(C)c1ccc(O)c(=O)c(O)c1 . inactive

Each compound tested received a call. Report the one for Cc1cc(O)c(=O)c(O)c2c1C[C@@H](C(C)(O)CSc1ccccc1)CC2 (mixture of isomers) . inactive

Each compound tested received a call. Report the one for Cc1cc(O)c(=O)c(O)c2c1C[C@@H](C(C)(O)CNc1ccccc1)CC2 (mixture of isomers) . active

Each compound tested received a call. Report the one for CCS(=O)(=O)CC(C)(O)[C@H]1CCc2c(c(C)cc(O)c(=O)c2O)C1 (mixture of isomers) . inactive

---

# Test system: Human immunodeficiency virus 1
# Reported Conditions: at 20 µM
Activity calls are given as the source filed them. The rule behind the calls is not given here.
The reply should name one outcome from class 1 (active), class 0 (inactive)

Each molecule tested received a call. Report the one for Cc1cc(O)c(=O)c(O)c2c1C[C@@H](C(C)(O)CN1CCCCC1)CC2 (mixture of isomers) . class 0

Each molecule tested received a call. Report the one for Cc1cc(O)c(=O)c(O)c2c1C[C@@H](C(C)O)CC2 (mixture of isomers) . class 0

Each molecule tested received a call. Report the one for CC(C)c1ccc(O)c(=O)c(O)c1 . class 0

Each molecule tested received a call. Report the one for CCS(=O)(=O)CC(C)(O)[C@H]1CCc2c(c(C)cc(O)c(=O)c2O)C1 (mixture of isomers) . class 0

Each molecule tested received a call. Report the one for Cc1cc(O)c(=O)c(O)c2c1C[C@@H](C(C)NCc1ccccc1)CC2 (mixture of isomers) . class 0

Each molecule tested received a call. Report the one for Cc1cc(O)c(=O)c(O)c2c1C[C@@H](C(C)(O)CNc1ccccc1)CC2 (mixture of isomers) . class 1

Each molecule tested received a call. Report the one for CC(=O)Oc1cc(C)c2c(c(OC(C)=O)c1=O)CC[C@H](C(C)(O)CO)C2 (mixture of isomers) . class 0

Each molecule tested received a call. Report the one for Cc1cc(O)c(=O)c(O)c2c1C[C@@H](C(C)(O)Cn1ccnc1)CC2 (mixture of isomers) . class 0

---

# System: CEM-SS
# Measurement Protocol: Cytotoxicity against human CEM-SS cells
# Assay type: cell-based
# Reported Conditions: cem-ss
The label Yes is reserved for CC50 strictly under 20 µM; No covers values equal to or above it.

Say whether its CC50 is strictly beneath 20 µM. Entry: CCS(=O)(=O)CC(C)(O)[C@H]1CCc2c(c(C)cc(O)c(=O)c2O)C1 (mixture of isomers) Yes

Say whether its CC50 is strictly beneath 20 µM. Entry: Cc1cc(O)c(=O)c(O)c2c1C[C@@H](C(C)(O)CNc1ccccc1)CC2 (mixture of isomers) No

Say whether its CC50 is strictly beneath 20 µM. Entry: Cc1cc(O)c(=O)c(O)c2c1C[C@@H](C(C)(O)CSCc1ccccc1)CC2 (mixture of isomers) Yes

Say whether its CC50 is strictly beneath 20 µM. Entry: Cc1cc(O)c(=O)c(O)c2c1C[C@@H](C(C)(O)CNCc1ccccc1F)CC2 (mixture of isomers) No

Say whether its CC50 is strictly beneath 20 µM. Entry: Cc1cc(O)c(=O)c(O)c2c1C[C@@H](C(C)(O)CSc1ccccc1)CC2 (mixture of isomers) Yes

Say whether its CC50 is strictly beneath 20 µM. Entry: Cc1cc(O)c(=O)c(O)c2c1C[C@@H](C(C)NCc1ccccc1)CC2 (mixture of isomers) Yes

Say whether its CC50 is strictly beneath 20 µM. Entry: Cc1cc(O)c(=O)c(O)c2c1C[C@@H](C(C)(O)CN1CCCCC1)CC2 (mixture of isomers) No

Say whether its CC50 is strictly beneath 20 µM. Entry: Cc1cc(O)c(=O)c(O)c2c1C[C@@H](C(C)O)CC2 (mixture of isomers) No

Say whether its CC50 is strictly beneath 20 µM. Entry: Cc1cc(O)c(=O)c(O)c2c1C[C@@H](C(C)(O)Cn1ccnc1)CC2 (mixture of isomers) No
